I'd be grateful if you could share measured viability at 24 h, 125 µM for these entries.
# METHOD NOTES: Phototoxicity in human NHDF cells assessed as cell viability at 125 uM preincubated for 60 mins followed by 5 J/cm2 UVA irradiation and measured after 24 hrs by neutral red uptake assay relative to control
# Format: cell-based
# MEASUREMENT CONTEXT: read-out: Activity
Just the number please, in %, no unit attached.

Request: viability at 24 h, 125 µM for c1nc(NCC2CCCO2)c2nc[nH]c2n1 (stereo not given) ?
Response: 103

Request: viability at 24 h, 125 µM for c1csc(CNc2ncnc3c2ncn3C2CCCO2)c1 (stereo not given) ?
Response: 106

Request: viability at 24 h, 125 µM for Clc1nc(NCC2CCCO2)c2ncn(C3CCCO3)c2n1 (stereo not given) ?
Response: 105

Request: viability at 24 h, 125 µM for OCc1ccc(CNc2ncnc3c2ncn3C2CCCO2)o1 (stereo not given) ?
Response: 112

Request: viability at 24 h, 125 µM for Clc1nc(NCc2ccco2)c2ncn(C3CCCO3)c2n1 (stereo not given) ?
Response: 97
